Experiment: NCI Yeast Anticancer Drug Screen. Data for the cln2 rad14 strain (AID 165);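 also: 0% = growth equal to vehicle treated cultures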
Conditions: S. cerevisiae cln2 rad14 strain, at 50.0 µM, hits give high values
About 79,000 compounds went through this panel and 15% of them were active in at least one assay; those are over-represented in the sample as a whole.
Assign 1 (yes) whenever growth inhibition does not fall below 60%; assign 0 (no) whenever it does.

Study these solved cases before continuing.
| COMPOUND | GROUP |
| --- | --- |
| CC1C2C=CC1C(c1c3ccc(=O)c(O)c-3oc3c(O)c(O)ccc13)C2C(=O)O (configuration not stated) | 0 (no) |
| [Au+].c1c[n-]cn1.c1ccc([PH+](c2ccccc2)c2ccccc2)cc1 | 1 (yes) |
| COc1cc2c3c(c1)-c1c(ccc(OC)c1OC)CC3N(CCCl)CC2 (configuration not stated) | 0 (no) |
| C[C@]12CC[C@H](O)CC1=CC[C@@H]1[C@@H]2CC[C@]2(C)C(=O)CC[C@@H]12 | 1 (yes) |
| CC1=C(CO)C(=O)OC(C(C)C2CCC3C4CC5OC56C(O)C(N5CC5)=CC(=O)C6(C)C4CCC23C)C1 (configuration not stated) | 0 (no) |

Say whether "[Br][Cd][Br].c1ccc([PH+](c2ccccc2)c2ccccc2)cc1.c1ccc([PH+](c2ccccc2)c2ccccc2)cc1" shows growth inhibition of 60% or more.
1 (yes)

growth inhibition >= 60% for "[N-]=[N+]=C1C(Cl)=C(Cl)C(Cl)=C1Cl" ?
1 (yes)

Quick check: does COC(=O)C1=C(C)NC(=S)NC1c1ccc(N(CCCl)CCCl)cc1Cl (configuration not stated) have growth inhibition greater than or equal to 60%?
1 (yes)

Determine whether measured growth inhibition meets or exceeds 60% for "O=[N+]([O-])c1ccccc1"
0 (no)

# check: growth inhibition of "COc1cc(/C=C/c2ccc(OC)c(OC)c2)cc(OC)c1" is greater than or equal to 60%
0 (no)

----------
Test: NCI Yeast Anticancer Drug Screen. Data for the sgs1 strain (AID 173);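 also: 0% = growth of vehicle-only control cultures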
Conditions: S. cerevisiae sgs1 mutant, at 11.0 µM, hits give high values
About 79,000 compounds went through this panel and 15% of them were active in at least one assay; those are over-represented in the sample as a whole.
Given measured growth inhibition, output Met if it is greater than or equal to 90% and Not met if not.

Here's what some known entries look like.
| COMPOUND | GROUP |
| --- | --- |
| Nc1ccc(Cl)cc1C(=O)c1ccccc1 | Not met |
| CC[C@@]1(O)C(=O)OCc2c1cc1n(c2=O)Cc2cc3c(NC(=O)CN)cccc3nc2-1 | Not met |
| O=c1oc2ccccc2c(O)c1C(c1ccc2c(c1)Cc1ccccc1-2)c1c(O)c2ccccc2oc1=O | Not met |

Please check the record "O=[N+]([O-])c1cc([As](Br)c2ccc(O)c([N+](=O)[O-])c2)ccc1O" and state if its growth inhibition is at or above 90%.
Met

Check the entry "CN(CCc1ccc(Br)cc1)CCN1CCCCC1" : does growth inhibition equal or exceed 90%?
Not met

----------
Experiment: NCI Yeast Anticancer Drug Screen. Data for the cln2 rad14 strain (AID 165);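 also: 0% = growth equal to vehicle treated cultures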
Conditions: S. cerevisiae cln2 rad14 strain, at 5.0 µM (retest, dose inferred, filed as 0.5), hits give high values
Protocol: Growth inhibition of yeast strains with defined genetic alterations is measured as a screen for potential anti-cancer activity. Selected strains with alterations in DNA damage repair or cell cycle control were exposed to compounds and growth inhibition was measured relative to vehicle treated controls. The strain used in this assay is cln2 rad14
About 79,000 compounds went through this panel and 15% of them were active in at least one assay; those are over-represented in the sample as a whole.
VALUE TYPE: growth inhibition (%)
Number only, in %; omit the unit.

# example entries with known answers
| SMILES RECORD | growth inhibition / % |
| --- | --- |
| CC[C@@]1(O)C(=O)OCc2c1cc1n(c2=O)Cc2cc3cc4c(cc3nc2-1)OCO4 | 48 |
| CCCC[CH2][Sn]([CH2]CCCC)[CH2]CCCC.CCCC[CH2][Sn]([CH2]CCCC)[CH2]CCCC | 8 |
| Cc1cccc(NC(=O)CBr)c1 | 34 |

Value lookup for growth inhibition; key = "Oc1cc(Cl)c(Cl)cc1Cl"
0

Value lookup for growth inhibition; key = "Cc1nc2ccccc2cc1C[N+]12CN3CN(CN(C3)C1)C2"
-30

# get_value(readout='growth inhibition', item= "O=[N+]([O-])c1ccc(C=Cc2ccc(C(F)(F)F)cc2)cc1.[C-]#[O+].[C-]#[O+].[C-]#[O+].[Cr]" )
-22

All values here come from PubChem BioAssay (NCI).
